target: Peptide 1: Biotin-…-[Tyr(PC)]-acid; assay: scFv ELISA
Sequence (peptide, as listed by the source): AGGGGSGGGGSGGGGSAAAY
Kindly supply the reported OD450 values for the records listed here.

get_value(item= PcOxP_DB03_B03 (scFv, V domains shown, scFv in periplasmic extract) VH: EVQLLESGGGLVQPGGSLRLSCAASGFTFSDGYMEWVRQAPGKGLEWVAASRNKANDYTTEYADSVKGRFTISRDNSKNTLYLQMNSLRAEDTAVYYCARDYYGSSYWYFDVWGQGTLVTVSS VL: DIVMTQSPDSLAVSLGERATINCTASESLYSSKHKVHYLAWYQQKPGQPPKLLIYGASNRYIGVPDRFSGSGSGTDFTLTISSLQAEDVAVYYCAQFYVYPLTFGGGTKVEIK , readout=OD450) returns 1.12 OD450

get_value(item= PcOxP_DB01_G04 (scFv, V domains shown, scFv in periplasmic extract) VH: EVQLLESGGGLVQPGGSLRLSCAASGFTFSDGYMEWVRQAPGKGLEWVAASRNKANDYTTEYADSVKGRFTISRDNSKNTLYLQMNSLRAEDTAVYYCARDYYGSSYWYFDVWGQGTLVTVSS VL: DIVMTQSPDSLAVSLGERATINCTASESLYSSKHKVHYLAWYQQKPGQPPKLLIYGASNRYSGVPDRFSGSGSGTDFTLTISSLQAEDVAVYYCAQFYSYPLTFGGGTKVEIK , readout=OD450) returns 0.56 OD450

get_value(item= PcOxP_DB01_F08 (scFv, V domains shown, scFv in periplasmic extract) VH: EVQLLESGGGLVQPGGSLRLSCAASGFTFSDGYMEWVRQAPGKGLEWVAASRNKWNDYTTEYADSVKGRFTISRDNSKNTLYLQMNSLRAEDTAVYYCARDYYGSSYWYFDVWGQGTLVTVSS VL: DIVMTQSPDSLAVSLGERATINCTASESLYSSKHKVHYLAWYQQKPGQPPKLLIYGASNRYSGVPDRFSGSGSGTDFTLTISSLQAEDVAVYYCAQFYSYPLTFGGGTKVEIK , readout=OD450) returns 0.52 OD450

get_value(item= PcOxP_DB03_A11 (scFv, V domains shown, scFv in periplasmic extract) VH: EVQLLESGGGLVQPGGSLRLSCAASGFTFSSYYMEWVRQAPGKGLEWVAASRNQANDYTTEYADSVKGRFTISRDNSKNTLYLQMNSLRAEDTAVYYCARDYYGSSYWYLDVWGQGTLVTVSS VL: DIQMTQSPSSLSASVGDRVTITCTASESLYSSKHKVHYLAWYQQKPGKAPKLLIYGADNRYIGVPSRFSGSGSGTDFTLTISSLQPEDFATYYCAQFYHYPLTFGGGTKVEIK , readout=OD450) returns 1.12 OD450

get_value(item= PcOxP_DB03_A07 (scFv, V domains shown, scFv in periplasmic extract) VH: EVQLLESGGGLVQPGGSLRLSCAASGFHFSDFYMEWVRQAPGKGLEWVAASRNKANDYTTEYADSVKGRFTISRDNSKNTLYLQMNSLRAEDTAVYYCARDYYGSSYWYFDVWGQGTLVTVSS VL: DIVMTQSPDSLAVSLGERATINCTASENLYSSKHKVHYLAWYQQKPGQPPKLLIYGASNRYSGVPDRFSGSGSGTDFTLTISSLQAEDVAVYYCAQFYSYPLTFGGGTKVEIK , readout=OD450) returns 0.94 OD450
